test system: NIH3T3; experiment: Cytotoxic Profiling of Annotated Libraries Using Quantitative High-Throughput Screening (AID 1296008); settings: Five cell lines viability, CellTiter-Glo ATP luminescence, 48-72 h; note: nearly all actives have a fitted effect of over 60% in size
Inconclusive results are not listed. Active and inactive are the calls of the source. Calls come from the whole dose curve; as a rule, active = well fitted inhibition curve with a large enough effect; inconclusive = small, poorly fitted or top-dose-only effect; inactive = flat fitted curve, though single readings scatter.
Outcomes: active, inactive

[
  {
    "molecule": "COc1ccc(-c2cc3c(C)nc(N)nc3n(C3CCC(OCCO)CC3)c2=O)cn1 (stereo not drawn)",
    "qualitative_label": "active"
  },
  {
    "molecule": "CN(C)CCCN=c1c2ccccc2n(C)c2[nH]c(=O)n(C)c(=O)c12",
    "qualitative_label": "active"
  },
  {
    "molecule": "CCCCCCCCCC(=O)N[C@@H](Cc1c[nH]c2ccccc12)C(=O)N[C@H](CC(N)=O)C(=O)N[C@@H](CC(=O)O)C(=O)N[C@@H]1C(=O)NCC(=O)N[C@@H](CCCN)C(=O)N[C@@H](CC(=O)O)C(=O)N[C@H](C)C(=O)N[C@@H](CC(=O)O)C(=O)NCC(=O)N[C@H](CO)C(=O)N[C@@H]([C@@H](C)CC(=O)O)C(=O)N[C@@H](CC(=O)c2ccccc2N)C(=O)O[C@@H]1C",
    "qualitative_label": "inactive"
  },
  {
    "molecule": "CCCn1c(=O)c2[nH]c(-c3cnn(Cc4cccc(C(F)(F)F)c4)c3)nc2n(CC)c1=O",
    "qualitative_label": "inactive"
  },
  {
    "molecule": "Cc1nc2ccc(CN(C)c3ccc(C(=O)N[C@@H](CCC(=O)O)C(=O)O)s3)cc2c(=O)[nH]1",
    "qualitative_label": "active"
  },
  {
    "molecule": "Cc1[nH]c2ccccc2c1CCNCc1ccc(C=CC(=O)NO)cc1",
    "qualitative_label": "active"
  },
  {
    "molecule": "CCOc1ccccc1OCCNC(C)Cc1ccc(OC)c(S(N)(=O)=O)c1 (stereo not drawn)",
    "qualitative_label": "inactive"
  },
  {
    "molecule": "CN(C)CC=CC(=O)Nc1cc2c(Nc3ccc(F)c(Cl)c3)ncnc2cc1O[C@H]1CCOC1",
    "qualitative_label": "active"
  },
  {
    "molecule": "CNC(=O)c1cc(Oc2ccc(NC(=O)Nc3cc(C(C)(C)C)nn3-c3ccc4ncccc4c3)c(F)c2)ccn1",
    "qualitative_label": "active"
  },
  {
    "molecule": "CNc1nccc(-c2cccnc2Oc2cc(C(=O)Nc3cccc(C(F)(F)F)c3)ccc2C)n1",
    "qualitative_label": "active"
  },
  {
    "molecule": "CC(C)c1ccc(Cn2ccc3c4c(N)nc(NC5CC5)nc4ccc32)cc1",
    "qualitative_label": "active"
  },
  {
    "molecule": "CC(C)CC(=O)Nc1n[nH]c2c1CN(C(=O)C1CCN(C)CC1)C2(C)C",
    "qualitative_label": "active"
  },
  {
    "molecule": "C[C@@H](Oc1cc(-n2cnc3ccc(CN4CCN(C)CC4)cc32)sc1C(N)=O)c1ccccc1C(F)(F)F",
    "qualitative_label": "active"
  }
]

====

test: Quantitative High-Throughput drug screen in 47 multiple myeloma cell lines against the NCATS MIPE library collection: H1112_PLB cell viability assay (AID 1918967; note: nearly all actives have a fitted effect of over 30% in size); conditions: H1112 myeloma cells viability, ATP luminescence, 48 h; series mostly up to 45.8 µM
Records with an inconclusive call do not appear. Calls of active or inactive are those of the source. The call rests on the fitted dose curve; in most records, active means well fitted cell-killing curve with a large enough effect; inconclusive means small, poorly fitted or top-dose-only effect, or effect the other way; inactive means no such curve, though single readings can be large or run the other way.
Outcomes: true (1) for active, false (0) for inactive

[
  {
    "molecule": "CCN1CCN(CC(=O)Nc2ccc(-c3cccc4c(=O)cc(N5CCOCC5)oc34)c3sc4ccccc4c23)CC1",
    "qualitative_label": "true (1)"
  },
  {
    "molecule": "CCOc1ccccc1OCCNC(C)Cc1ccc(OC)c(S(N)(=O)=O)c1 (stereo unspecified)",
    "qualitative_label": "false (0)"
  },
  {
    "molecule": "CNC(=O)c1cc(Oc2ccc(NC(=O)Nc3cc(C(C)(C)C)nn3-c3ccc4ncccc4c3)c(F)c2)ccn1",
    "qualitative_label": "true (1)"
  },
  {
    "molecule": "CCCCc1nc2cc(C=CC(=O)NO)ccc2n1CCN(CC)CC",
    "qualitative_label": "true (1)"
  },
  {
    "molecule": "CC(C)(C)OC(=O)Nc1ccc(-c2cc(C(=O)NCCCCCCC(=O)NO)no2)cc1",
    "qualitative_label": "true (1)"
  },
  {
    "molecule": "CC1(C)CCC(c2ccc(Cl)cc2)=C(CN2CCN(c3ccc(C(=O)NS(=O)(=O)c4ccc(N[C@H](CCN5CCOCC5)CSc5ccccc5)c(S(=O)(=O)C(F)(F)F)c4)cc3)CC2)C1",
    "qualitative_label": "true (1)"
  },
  {
    "molecule": "CN(C1CCc2c(c3ccccc3n2CC(=O)O)C1)S(=O)(=O)c1ccc(F)cc1 (stereo unspecified)",
    "qualitative_label": "false (0)"
  },
  {
    "molecule": "CC(C)c1cc(C(=O)N2Cc3ccc(CN4CCN(C)CC4)cc3C2)c(O)cc1O",
    "qualitative_label": "true (1)"
  },
  {
    "molecule": "CN(C)CC=CC(=O)Nc1cc2c(Nc3ccc(F)c(Cl)c3)ncnc2cc1O[C@H]1CCOC1",
    "qualitative_label": "true (1)"
  },
  {
    "molecule": "CC1COC2(CCN(c3nc(=O)c4cc(C(F)(F)F)cc([N+](=O)[O-])c4s3)CC2)O1 (stereo unspecified)",
    "qualitative_label": "false (0)"
  },
  {
    "molecule": "CN1CCN(c2ccc3nc(-c4c(N)c5c(F)cccc5[nH]c4=O)[nH]c3c2)CC1",
    "qualitative_label": "true (1)"
  },
  {
    "molecule": "Nc1cc(C(F)(F)F)c(-c2cc(N3CCOCC3)nc(N3CCOCC3)n2)cn1",
    "qualitative_label": "true (1)"
  },
  {
    "molecule": "CC(C)[C@H](C(=O)Nc1ccc(C(=O)NO)cc1)c1ccccc1",
    "qualitative_label": "true (1)"
  },
  {
    "molecule": "O=C(C=Cc1cccc(S(=O)(=O)Nc2ccccc2)c1)NO",
    "qualitative_label": "true (1)"
  },
  {
    "molecule": "CC1(C)O[C@@H]2C[C@@H]3[C@H]4C[C@@H](F)C5=CC(=O)C=C[C@]5(C)[C@@]4(F)[C@@H](O)C[C@]3(C)[C@]2(C(=O)CO)O1",
    "qualitative_label": "false (0)"
  },
  {
    "molecule": "C=CC(=O)Nc1cc2c(Nc3ccc(F)c(Cl)c3)ncnc2cc1C#CC(C)(C)N1CCN(C)CC1",
    "qualitative_label": "true (1)"
  },
  {
    "molecule": "O=C(Nc1nc2cccc(-c3ccc(CN4CCS(=O)(=O)CC4)cc3)n2n1)C1CC1",
    "qualitative_label": "true (1)"
  },
  {
    "molecule": "CCCCOc1c(C(=O)c2c(F)cc(C)cc2F)cnc2n[nH]cc12",
    "qualitative_label": "true (1)"
  },
  {
    "molecule": "Cc1ccc(NC(=O)C2(c3ccc4c(c3)OC(F)(F)O4)CC2)nc1-c1cccc(C(=O)O)c1",
    "qualitative_label": "true (1)"
  },
  {
    "molecule": "c1ccc2c(CCNc3ccc(Nc4ccncc4)cc3)c[nH]c2c1",
    "qualitative_label": "true (1)"
  },
  {
    "molecule": "OCc1ccc(-c2ccc(-c3ccc(CO)s3)o2)s1",
    "qualitative_label": "true (1)"
  },
  {
    "molecule": "COc1cc(Nc2ncc(F)c(Nc3ccc4c(n3)N(COP(=O)(O)O)C(=O)C(C)(C)O4)n2)cc(OC)c1OC",
    "qualitative_label": "true (1)"
  },
  {
    "molecule": "NC(=O)c1c(OCc2c(F)cc(Br)cc2F)nsc1NC(=O)NCCCCN1CCCC1",
    "qualitative_label": "true (1)"
  },
  {
    "molecule": "c1nc2nc(Nc3ccc(N4CCOCC4)cc3)nc(NC3CCCCC3)c2[nH]1",
    "qualitative_label": "true (1)"
  },
  {
    "molecule": "COc1cc2ncnc(Nc3ccc(F)c(Cl)c3)c2cc1NC(=O)C=CCN1CCCCC1",
    "qualitative_label": "true (1)"
  },
  {
    "molecule": "COc1cc2c(cc1-c1c(C)noc1C)ncc1[nH]c(=O)n([C@H](C)c3ccccn3)c12",
    "qualitative_label": "true (1)"
  },
  {
    "molecule": "CC(C)(C)c1cnc(CSc2cnc(NC(=O)C3CCNCC3)s2)o1",
    "qualitative_label": "true (1)"
  },
  {
    "molecule": "O=C(c1cncc(Br)c1)N1CCC(N2CCCC2)CC1",
    "qualitative_label": "false (0)"
  },
  {
    "molecule": "CCCCCN(CCC12CC3CC(CC(C3)C1)C2)C(=O)NCCCc1ccncc1",
    "qualitative_label": "true (1)"
  },
  {
    "molecule": "CC(C)c1ccccc1Cc1cc(C(=O)Nc2ccc(S(=O)(=O)c3ccccc3C(C)(C)C)cc2)c(O)c(O)c1O",
    "qualitative_label": "true (1)"
  },
  {
    "molecule": "C1=CCOCc2cc(ccc2OCCN2CCCC2)Nc2nccc(n2)-c2cccc(c2)OCC1",
    "qualitative_label": "true (1)"
  }
]
